- Test system: S. aureus Newman
- PROTOCOL DESCRIPTION: Bliss interaction score (quartile over a dose matrix) (fitness difference); higher = more antagonism (negative = synergy);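 further: first quartile when negative (synergy) and third quartile when positive (antagonism)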
TEST READOUT: Bliss interaction score
Respond with the number and no other words.

Enquiry: Fill in the blank: the reported Bliss interaction score of CN[C@H](CC(C)C)C(=O)N[C@H]1C(=O)N[C@@H](CC(N)=O)C(=O)N[C@H]2C(=O)N[C@H]3C(=O)N[C@H](C(=O)N[C@H](C(=O)O)c4cc(O)cc(O)c4-c4cc3ccc4O)[C@H](O[C@H]3C[C@](C)(N)[C@@H](O)[C@H](C)O3)c3ccc(c(Cl)c3)Oc3cc2cc(c3O[C@@H]2O[C@H](CO)[C@@H](O)[C@H](O)[C@H]2O[C@H]2C[C@](C)(NCc3ccc(-c4ccc(Cl)cc4)cc3)[C@@H](O)[C@H](C)O2)Oc2ccc(cc2Cl)[C@H]1O [Oritavancin] + C[n+]1ccc(-c2cc[n+](C)cc2)cc1 [Paraquat] is ____.
Return: -0.065

Enquiry: Fill in the blank: the reported Bliss interaction score of CC[C@H]1OC(=O)[C@H](C)[C@@H](O[C@H]2C[C@@](C)(OC)[C@@H](O)[C@H](C)O2)[C@H](C)[C@@H](O[C@@H]2O[C@H](C)C[C@H](N(C)C)[C@H]2O)[C@](C)(O)C[C@@H](C)C(=O)[C@H](C)[C@@H](O)[C@]1(C)O [Erythromycin] + Cc1cc(NS(=O)(=O)c2ccc(N)cc2)no1 [Sulfamethoxazol] is ____.
Return: -0.0442

Enquiry: Fill in the blank: the reported Bliss interaction score of CO[C@@H]1[C@@H](OC(N)=O)[C@@H](O)[C@H](Oc2ccc3c(O)c(NC(=O)c4ccc(O)c(CC=C(C)C)c4)c(=O)oc3c2C)OC1(C)C [Novobiocin] + C/C(=C\C(=O)OCCCCCCCCC(=O)O)C[C@@H]1OC[C@H](C[C@@H]2O[C@H]2[C@@H](C)[C@H](C)O)[C@@H](O)[C@H]1O [Pseudomonic acid] is ____.
Return: -0.0166

Enquiry: Fill in the blank: the reported Bliss interaction score of CO[C@@H]1[C@@H](OC(N)=O)[C@@H](O)[C@H](Oc2ccc3c(O)c(NC(=O)c4ccc(O)c(CC=C(C)C)c4)c(=O)oc3c2C)OC1(C)C [Novobiocin] + C[n+]1ccc(-c2cc[n+](C)cc2)cc1 [Paraquat] is ____.
Return: 0.0868

###

For each entry below, report its Bliss interaction score value.
- System: S. pneumoniae D39V
- PROTOCOL DESCRIPTION: Bliss interaction score (quartile over a dose matrix) (fitness difference); higher = more antagonism (negative = synergy)
Respond with the number and no other words.

Enquiry: Fill in the blank: the reported Bliss interaction score of CO[C@@H]1[C@@H](OC(N)=O)[C@@H](O)[C@H](Oc2ccc3c(O)c(NC(=O)c4ccc(O)c(CC=C(C)C)c4)c(=O)oc3c2C)OC1(C)C [Novobiocin] + Cc1onc(-c2ccccc2)c1C(=O)N[C@@H]1C(=O)N2[C@@H]1SC(C)(C)[C@@H]2C(=O)O [Oxacillin] is ____.
Return: -0.0758

Enquiry: Fill in the blank: the reported Bliss interaction score of CC(=O)NC[C@H]1CN(c2ccc(N3CCOCC3)c(F)c2)C(=O)O1 [Linezolid] + CN[C@H](CC(C)C)C(=O)N[C@H]1C(=O)N[C@@H](CC(N)=O)C(=O)N[C@H]2C(=O)N[C@H]3C(=O)N[C@H](C(=O)N[C@H](C(=O)O)c4cc(O)cc(O)c4-c4cc3ccc4O)[C@H](O)c3ccc(c(Cl)c3)Oc3cc2cc(c3O[C@@H]2O[C@H](CO)[C@@H](O)[C@H](O)[C@H]2O[C@H]2C[C@](C)(N)[C@H](O)[C@H](C)O2)Oc2ccc(cc2Cl)[C@H]1O [Vancomycin] is ____.
Return: -0.13

Enquiry: Fill in the blank: the reported Bliss interaction score of CO[C@@]12[C@H](COC(N)=O)C3=C(C(=O)C(C)=C(N)C3=O)N1C[C@@H]1N[C@@H]12 [MitomycinC] + Cc1onc(-c2ccccc2)c1C(=O)N[C@@H]1C(=O)N2[C@@H]1SC(C)(C)[C@@H]2C(=O)O [Oxacillin] is ____.
Return: 0.0896

###

For each entry below, report its Bliss interaction score value.
- System: S. pneumoniae D39V
- PROTOCOL DESCRIPTION: Bliss interaction score (quartile over a dose matrix) (fitness difference); higher = more antagonism (negative = synergy)

Enquiry: Find Bliss interaction score (S. pneumoniae D39V) for the entry CN[C@@H]1[C@H](O[C@H]2[C@H](O[C@H]3[C@H](O)[C@@H](O)[C@H](N=C(N)N)[C@@H](O)[C@@H]3N=C(N)N)O[C@@H](C)[C@]2(O)C=O)O[C@@H](CO)[C@H](O)[C@H]1O [Streptomycin] + CN(C)c1cc(NC(=O)CNC(C)(C)C)c(O)c2c1C[C@H]1C[C@H]3[C@H](N(C)C)C(O)=C(C(N)=O)C(=O)[C@@]3(O)C(O)=C1C2=O [Tigecycline]
Return: 0.0816

Enquiry: Find Bliss interaction score (S. pneumoniae D39V) for the entry CC[C@H]1OC(=O)[C@H](C)[C@@H](O[C@H]2C[C@@](C)(OC)[C@@H](O)[C@H](C)O2)[C@H](C)[C@@H](O[C@@H]2O[C@H](C)C[C@H](N(C)C)[C@H]2O)[C@](C)(O)C[C@@H](C)C(=O)[C@H](C)[C@@H](O)[C@]1(C)O [Erythromycin] + CN1C2=CC=CC=C2N=C3C1=CC=CC3=O [Pyocyanin]
Return: -0.0454

Enquiry: Find Bliss interaction score (S. pneumoniae D39V) for the entry CO[C@H]1/C=C/O[C@@]2(C)Oc3c(C)c(O)c4c(O)c(c(/C=N/N5CCN(C)CC5)c(O)c4c3C2=O)NC(=O)/C(C)=C\C=C\[C@H](C)[C@H](O)[C@@H](C)[C@@H](O)[C@@H](C)[C@H](OC(C)=O)[C@@H]1C [Rifampicin] + CN[C@@H]1[C@H](O)[C@H](NC)[C@H]2O[C@@]3(O)C(=O)C[C@@H](C)O[C@H]3O[C@@H]2[C@H]1O [Spectinomycin]
Return: -0.153

###

- System: B. subtilis 168
- PROTOCOL DESCRIPTION: Bliss interaction score (quartile over a dose matrix) (fitness difference); higher = more antagonism (negative = synergy)
- EXPERIMENTAL CONTEXT: main component drawn
For each entry below, report its Bliss interaction score value.
Respond with the number and no other words.

Enquiry: Fill in the blank: the reported Bliss interaction score of CC[C@H](C)[C@H](N)C1=N[C@H](C(=O)N[C@@H](CC(C)C)C(=O)N[C@H](CCC(=O)O)C(=O)N[C@H](C(=O)N[C@H]2CCCCNC(=O)[C@H](CC(N)=O)NC(=O)[C@@H](CC(=O)O)NC(=O)[C@H](Cc3cnc[nH]3)NC(=O)[C@@H](Cc3ccccc3)NC(=O)[C@H]([C@@H](C)CC)NC(=O)[C@@H](CCCN)NC2=O)[C@@H](C)CC)CS1 [Bacitracin] + Cc1cc(NS(=O)(=O)c2ccc(N)cc2)no1 [Sulfamethoxazol] is ____.
Return: 0.0966

Enquiry: Fill in the blank: the reported Bliss interaction score of CC[C@H](C)[C@H](N)C1=N[C@H](C(=O)N[C@@H](CC(C)C)C(=O)N[C@H](CCC(=O)O)C(=O)N[C@H](C(=O)N[C@H]2CCCCNC(=O)[C@H](CC(N)=O)NC(=O)[C@@H](CC(=O)O)NC(=O)[C@H](Cc3cnc[nH]3)NC(=O)[C@@H](Cc3ccccc3)NC(=O)[C@H]([C@@H](C)CC)NC(=O)[C@@H](CCCN)NC2=O)[C@@H](C)CC)CS1 [Bacitracin] + CCC[C@@H]1C[C@@H](C(=O)N[C@@H]([C@H]2O[C@H](SC)[C@H](O)[C@@H](O)[C@H]2O)[C@@H](C)O)N(C)C1 [Lincomycin] is ____.
Return: 0.0963

Enquiry: Fill in the blank: the reported Bliss interaction score of CC[C@H](C)[C@H](N)C1=N[C@H](C(=O)N[C@@H](CC(C)C)C(=O)N[C@H](CCC(=O)O)C(=O)N[C@H](C(=O)N[C@H]2CCCCNC(=O)[C@H](CC(N)=O)NC(=O)[C@@H](CC(=O)O)NC(=O)[C@H](Cc3cnc[nH]3)NC(=O)[C@@H](Cc3ccccc3)NC(=O)[C@H]([C@@H](C)CC)NC(=O)[C@@H](CCCN)NC2=O)[C@@H](C)CC)CS1 [Bacitracin] + CC1=C(C(=O)O)N2C(=O)[C@@H](NC(=O)[C@H](N)c3ccccc3)[C@H]2SC1 [Cephalexin] is ____.
Return: 0.0854

Enquiry: Fill in the blank: the reported Bliss interaction score of CC[C@H](C)[C@H](N)C1=N[C@H](C(=O)N[C@@H](CC(C)C)C(=O)N[C@H](CCC(=O)O)C(=O)N[C@H](C(=O)N[C@H]2CCCCNC(=O)[C@H](CC(N)=O)NC(=O)[C@@H](CC(=O)O)NC(=O)[C@H](Cc3cnc[nH]3)NC(=O)[C@@H](Cc3ccccc3)NC(=O)[C@H]([C@@H](C)CC)NC(=O)[C@@H](CCCN)NC2=O)[C@@H](C)CC)CS1 [Bacitracin] + CCC[C@@H]1C[C@@H](C(=O)N[C@@H]([C@H]2O[C@H](SC)[C@H](O)[C@@H](O)[C@H]2O)[C@H](C)Cl)N(C)C1 [Clindamycin] is ____.
Return: -0.0851

Enquiry: Fill in the blank: the reported Bliss interaction score of CC[C@H](C)[C@H](N)C1=N[C@H](C(=O)N[C@@H](CC(C)C)C(=O)N[C@H](CCC(=O)O)C(=O)N[C@H](C(=O)N[C@H]2CCCCNC(=O)[C@H](CC(N)=O)NC(=O)[C@@H](CC(=O)O)NC(=O)[C@H](Cc3cnc[nH]3)NC(=O)[C@@H](Cc3ccccc3)NC(=O)[C@H]([C@@H](C)CC)NC(=O)[C@@H](CCCN)NC2=O)[C@@H](C)CC)CS1 [Bacitracin] + CO/N=C(\C(=O)N[C@@H]1C(=O)N2C(C(=O)O)=C(COC(C)=O)CS[C@H]12)c1csc(N)n1 [Cefotaxime] is ____.
Return: -0.1

Enquiry: Fill in the blank: the reported Bliss interaction score of CC[C@H](C)[C@H](N)C1=N[C@H](C(=O)N[C@@H](CC(C)C)C(=O)N[C@H](CCC(=O)O)C(=O)N[C@H](C(=O)N[C@H]2CCCCNC(=O)[C@H](CC(N)=O)NC(=O)[C@@H](CC(=O)O)NC(=O)[C@H](Cc3cnc[nH]3)NC(=O)[C@@H](Cc3ccccc3)NC(=O)[C@H]([C@@H](C)CC)NC(=O)[C@@H](CCCN)NC2=O)[C@@H](C)CC)CS1 [Bacitracin] + Cc1ncc([N+](=O)[O-])n1CCO [Metronidazole] is ____.
Return: 0.103

Enquiry: Fill in the blank: the reported Bliss interaction score of CC[C@H](C)[C@H](N)C1=N[C@H](C(=O)N[C@@H](CC(C)C)C(=O)N[C@H](CCC(=O)O)C(=O)N[C@H](C(=O)N[C@H]2CCCCNC(=O)[C@H](CC(N)=O)NC(=O)[C@@H](CC(=O)O)NC(=O)[C@H](Cc3cnc[nH]3)NC(=O)[C@@H](Cc3ccccc3)NC(=O)[C@H]([C@@H](C)CC)NC(=O)[C@@H](CCCN)NC2=O)[C@@H](C)CC)CS1 [Bacitracin] + Oc1cc(Cl)ccc1Oc1ccc(Cl)cc1Cl [Triclosan] is ____.
Return: -0.136

Enquiry: Fill in the blank: the reported Bliss interaction score of CC[C@H](C)[C@H](N)C1=N[C@H](C(=O)N[C@@H](CC(C)C)C(=O)N[C@H](CCC(=O)O)C(=O)N[C@H](C(=O)N[C@H]2CCCCNC(=O)[C@H](CC(N)=O)NC(=O)[C@@H](CC(=O)O)NC(=O)[C@H](Cc3cnc[nH]3)NC(=O)[C@@H](Cc3ccccc3)NC(=O)[C@H]([C@@H](C)CC)NC(=O)[C@@H](CCCN)NC2=O)[C@@H](C)CC)CS1 [Bacitracin] + C[C@@H](O)[C@H]1C(=O)N2C(C(=O)O)=C(SCCNC=N)C[C@H]12 [Imipenem] is ____.
Return: -0.359

Enquiry: Fill in the blank: the reported Bliss interaction score of CC[C@H](C)[C@H](N)C1=N[C@H](C(=O)N[C@@H](CC(C)C)C(=O)N[C@H](CCC(=O)O)C(=O)N[C@H](C(=O)N[C@H]2CCCCNC(=O)[C@H](CC(N)=O)NC(=O)[C@@H](CC(=O)O)NC(=O)[C@H](Cc3cnc[nH]3)NC(=O)[C@@H](Cc3ccccc3)NC(=O)[C@H]([C@@H](C)CC)NC(=O)[C@@H](CCCN)NC2=O)[C@@H](C)CC)CS1 [Bacitracin] + CN[C@@H]1[C@H](O)[C@H](NC)[C@H]2O[C@@]3(O)C(=O)C[C@@H](C)O[C@H]3O[C@@H]2[C@H]1O [Spectinomycin] is ____.
Return: 0.0682
